All values here come from patent US9120761B2.

Answer each item with its documented IC50.
Tested on: MDA-231-LNA cells
protocol.details: 2D cellular proliferation assay
Format: cell-based
run.parameters: 72 h, 3 days incubation, resazurin
Remember to put the unit after the number in your answer.

Query :: Find the recorded IC50 belonging to CCc1cc(C2CCN(C)CC2)ccc1Nc1ncc(C(F)(F)F)c(CCc2ccccc2CC(N)=O)n1 and report it.
Result :: 2900 nM

Query :: Also COc1cc(C2CCNCC2)ccc1Nc1ncc(C(F)(F)F)c(CCc2ccccc2CC(N)=O)n1 ?
Result :: 2770 nM

Query :: Also COc1cc(C2CCN(C)CC2)ccc1Nc1ncc(C(F)(F)F)c(CCc2cccc(C(N)=O)c2)n1 ?
Result :: 2240 nM

Query :: Also COc1cc(N2CCNCC2)ccc1Nc1ncc(C(F)(F)F)c(CCc2ccccc2CC(N)=O)n1 ?
Result :: 1430 nM

Query :: Also COc1cc(C2CCN(C)CC2)ccc1Nc1ncc(C(F)(F)F)c(CCc2ccccc2CC(N)=O)n1 ?
Result :: 6620 nM

Query :: Also COc1cc(C2CCNCC2)ccc1Nc1ncc(C(F)(F)F)c(CCc2cccc(C(N)=O)c2)n1 ?
Result :: 3060 nM

Query :: Also CN1CCC(c2ccc(Nc3ncc(C(F)(F)F)c(CCc4ccccc4CC(N)=O)n3)c(F)c2)CC1 ?
Result :: 2760 nM

Query :: Also CCN1CCC(c2ccc(Nc3ncc(C(F)(F)F)c(CCc4ccccc4CC(N)=O)n3)c(OC)c2)CC1 ?
Result :: 1910 nM
